The following compounds are listed with their measured T/C values.
Tested on: P388 leukemia ip, CD2F1 mice, survival T/C
Assay: NCI In Vivo Anticancer Drug Screen. Data for tumor model P388 Leukemia (intraperitoneal) in CD2F1 (CDF1) mice
Settings: endpoint: median survival time; dose: 50.0 mg/kg/injection; schedule: Q01DX009 (ip); vehicle: saline with Tween-80; higher = longer survival
Toxic doses and inconclusive results are not listed.

The following compounds have reported results that may help.
[
  {
    "COMPOUND": "COC1OCN(Cc2ccccc2)CC1(C)C (stereo not drawn)",
    "ASSAYED SYSTEM": "P388 leukemia ip, CD2F1 mice, survival T/C",
    "T/C": "108 % of control"
  },
  {
    "COMPOUND": "COc1cc(C(=O)OC2c3ccccc3CCC2N(C)C)cc(OC)c1OC (stereo not drawn)",
    "ASSAYED SYSTEM": "P388 leukemia ip, CD2F1 mice, survival T/C",
    "T/C": "91 % of control"
  },
  {
    "COMPOUND": "CC(=O)SCc1nc2ccccc2[nH]1",
    "ASSAYED SYSTEM": "P388 leukemia ip, CD2F1 mice, survival T/C",
    "T/C": "105 % of control"
  },
  {
    "COMPOUND": "CCCCCCCCCCCC(=O)N(CCOC(=O)c1ccco1)CCOC(=O)c1ccco1",
    "ASSAYED SYSTEM": "P388 leukemia ip, CD2F1 mice, survival T/C",
    "T/C": "108 % of control"
  },
  {
    "COMPOUND": "C/C(=N/NC(N)=S)C1CCC2C3CCC4CCCCC4(C)C3CC(O)C12C (stereo not drawn)",
    "ASSAYED SYSTEM": "P388 leukemia ip, CD2F1 mice, survival T/C",
    "T/C": "92 % of control"
  },
  {
    "COMPOUND": "CCNC(=O)OCc1ccco1",
    "ASSAYED SYSTEM": "P388 leukemia ip, CD2F1 mice, survival T/C",
    "T/C": "107 % of control"
  },
  {
    "COMPOUND": "CC(=O)Sc1ccccc1C(=O)NCc1ccc(Cl)cc1",
    "ASSAYED SYSTEM": "P388 leukemia ip, CD2F1 mice, survival T/C",
    "T/C": "117 % of control"
  },
  {
    "COMPOUND": "CCCCSc1ccc(N=[N+]([O-])c2ccc(SCCCC)nc2SCCCC)c(SCCCC)n1",
    "ASSAYED SYSTEM": "P388 leukemia ip, CD2F1 mice, survival T/C",
    "T/C": "94 % of control"
  }
]

Just so you know, measured T/C for CCC1(C)c2cc(C)c(C(C)=O)cc2C(C)(C)C1C (stereo not drawn) came out at 101 % of control

// recorded T/C for "Brc1cnc2ccccn12" : 101 % of control

T/C measured on "O=C(O)CNC(=O)C(F)(F)F" = 93 % of control

Sample CN=S(=O)(OCCCCCOS(=O)(=NC)c1ccccc1)c1ccccc1 (stereo not drawn) ; T/C observed: 124 % of control

According to the records, this compound "Clc1cccn2cnnc12" displays T/C of 98 % of control
